Tested on: OVCAR-8 ovarian
assayName: NCI-60 one-dose screen, 48 h
experimentalContext: 10 µM unless noted
This is part of a sample that, as a whole, favours compounds with a hit. Of some 83,000 tested, about 20% had one in any assay. Calls of active or inactive are those of the source. How the source made its calls: active means growth percent below 10; inactive means the rest.
Possible outcomes: label 1 for active, label 0 for inactive

{"compound": "C/C=C(\\C)C(C(=O)NC1CCCCC1)N(C(=O)C1CCc2cc(F)ccc2O1)c1ccc([N+](=O)[O-])cc1 (centres undefined)", "assayTarget": "OVCAR-8 ovarian", "group": "label 0"}
{"compound": "O=c1[nH]c2cc(Cl)c(Cl)cc2o1", "assayTarget": "OVCAR-8 ovarian", "group": "label 0"}
{"compound": "C#CC[C@@H]1C[C@]2(C)[C@H]3CC=C4[C@H]5[C@@H](C)[C@H](C)CC[C@]5(C(=O)NCCCCCCCCN)CC[C@@]4(C)[C@]3(C)CC[C@H]2C(C)(C)[C@H]1OC(C)=O", "assayTarget": "OVCAR-8 ovarian", "group": "label 1"}
{"compound": "Cc1n(Cc2ccc3ccccc3n2)cc[n+]1Cc1ccc2ccccc2n1", "assayTarget": "OVCAR-8 ovarian", "group": "label 0"}
{"compound": "COc1ccc2cc(-c3nc(C)c(C(C)=O)c(-c4ccc(C)cc4)n3)ccc2c1", "assayTarget": "OVCAR-8 ovarian", "group": "label 0"}
{"compound": "COc1ccc(/C(=C\\c2ccc3c(c2)OCO3)C(=O)Nc2nc3ccc(F)cc3s2)cc1OC", "assayTarget": "OVCAR-8 ovarian", "group": "label 0"}
{"compound": "C#CC[C@@H]1C[C@]2(C)[C@H]3CC[C@@H]4[C@H]5C(C(=C)C)CC[C@]5(C(=O)NCCCCCCCCN)CC[C@@]4(C)[C@]3(C)CC[C@H]2C(C)(C)[C@H]1OC(C)=O (some centres undefined)", "assayTarget": "OVCAR-8 ovarian", "group": "label 0"}
{"compound": "Cc1cc(C)cc(NC(=O)Cn2nncc2CN2C(=O)CSC2=O)c1", "assayTarget": "OVCAR-8 ovarian", "group": "label 0"}
{"compound": "CS(=O)(=O)Nc1cc(-c2cc3ncc(C#N)c(Nc4ccc(Oc5ccccc5)c(Cl)c4)c3s2)cnc1Cl", "assayTarget": "OVCAR-8 ovarian", "group": "label 0"}
{"compound": "CCc1ccc(-c2ccc(NC3CCCCCC3)nn2)cc1S(N)(=O)=O", "assayTarget": "OVCAR-8 ovarian", "group": "label 0"}
{"compound": "C=CCn1c(C)nc2cc(Nc3nc(N4CCOCC4)nc4nc[nH]c34)ccc21", "assayTarget": "OVCAR-8 ovarian", "group": "label 0"}
{"compound": "COc1ccc(/C(=C\\c2cc(OC)c(OC)c(OC)c2)C(=O)N2CCNCC2)cc1", "assayTarget": "OVCAR-8 ovarian", "group": "label 0"}
{"compound": "CC(CN1CCN(C)CC1)CN1c2ccccc2Sc2ccc(C(F)(F)F)cc21 (centres undefined)", "assayTarget": "OVCAR-8 ovarian", "group": "label 0"}
{"compound": "CCOc1cccc(/C=N/NC(=O)Cc2ccc(Nc3ccnc(C(F)(F)F)c3)cc2)c1O", "assayTarget": "OVCAR-8 ovarian", "group": "label 0"}
{"compound": "COc1ccc(-c2nc(-c3cc(OC)cc(OC)c3)[nH]c2-c2ccc(OC)cc2)cc1", "assayTarget": "OVCAR-8 ovarian", "group": "label 0"}
{"compound": "COc1ccc2c(c1)N(CCO)C1=C(C(=O)OC1)C2c1cccc(Br)c1 (centres undefined)", "assayTarget": "OVCAR-8 ovarian", "group": "label 0"}
{"compound": "COc1cc(Nc2ccnc3ccc(Br)cc23)cc(OC)c1OC", "assayTarget": "OVCAR-8 ovarian", "group": "label 0"}
{"compound": "Cc1nc2ccc(Nc3nc(Cl)nc(N4CCOCC4)n3)cc2n1Cc1ccccc1", "assayTarget": "OVCAR-8 ovarian", "group": "label 0"}
{"compound": "N=C(N)c1ccc(-c2ccc(-c3cc(Cl)cc(Cl)c3)o2)nc1", "assayTarget": "OVCAR-8 ovarian", "group": "label 1"}
